# Test system: soybean (Glycine max Merr.), GLXMA
# assay.overview: Test Example 2 post-emergence (foliage treatment) herbicidal activity, GLXMA
# Assay type: in vivo
# condition.notes: 63 g a.i./ha
measurement.type: growth controlling degree, GLXMA

molecule	growth controlling degree, GLXMA
COc1c(Cl)cc(F)c(-c2nn(C)c(OC(F)F)c2Cl)c1N(C)C=O [Compound 1-6]	90%
COC(=O)CN(C=O)c1c(OC)c(Cl)cc(F)c1-c1nn(C)c(OC(F)F)c1Cl [Compound 1-20]	50%
COc1c(Cl)cc(F)c(-c2nn(C)c(OC(F)F)c2Cl)c1N(C=O)C(C)C [Compound 1-8]	70%
COCCC(=O)Nc1c(OC)c(Cl)cc(F)c1-c1nn(C)c(OC(F)F)c1Cl [Compound 1-40]	95%

Proceed to the following item.
Observed growth controlling degree, GLXMA, soybean (Glycine max Merr.), GLXMA, COc1c(Cl)cc(F)c(-c2nn(C)c(OC(F)F)c2Cl)c1NC(=O)c1ccccc1C(F)(F)F [Compound 1-25] : 98%

###

# System: corn (Zea mays L.): ZEAMX
# assay.overview: Test Example 1 pre-emergence herbicidal activity, ZEAMX
# Format: in vivo
# condition.notes: Rate 63 g a.i./ha, visually observed 20th to 23rd day after application
measurement.type: Pre-emergence Herbicidal Activity ZEAMX (growth controlling degree)

Pre-emergence Herbicidal Activity ZEAMX (growth controlling degree) in this record for C#CCN(C=O)c1c(OC(F)F)c(Cl)cc(F)c1-c1nn(C)c(OC(F)F)c1Cl [Compound 1-85] : 10%

Pre-emergence Herbicidal Activity ZEAMX (growth controlling degree) in this record for COc1c(Cl)cc(F)c(-c2nn(C)c(OC(F)F)c2Cl)c1NC(=O)CCc1ccccc1F [Compound 1-269] : 10%

Pre-emergence Herbicidal Activity ZEAMX (growth controlling degree) in this record for COc1c(Cl)cc(F)c(-c2nn(C)c(OC(F)F)c2Cl)c1NC(=O)c1ccc(C#N)cc1 [Compound 1-32] : 10%

Pre-emergence Herbicidal Activity ZEAMX (growth controlling degree) in this record for COc1c(Cl)cc(F)c(-c2nn(C)c(OC(F)F)c2Cl)c1NC(=O)OC(C)C [Compound 1-75] : 10%

Pre-emergence Herbicidal Activity ZEAMX (growth controlling degree) in this record for COc1c(Cl)cc(F)c(-c2nn(C)c(OC(F)F)c2Cl)c1NC(=O)COc1ccccc1 [Compound 1-15] : 10%

Pre-emergence Herbicidal Activity ZEAMX (growth controlling degree) in this record for COc1c(Cl)cc(F)c(-c2nn(C)c(OC(F)F)c2Cl)c1NC(=O)c1cccc(Cl)c1 [Compound 1-26] : 10%

###

# Tested on: wheat (Triticum aestivum L.): TRZAX
# assay.overview: Test Example 1 pre-emergence herbicidal activity, TRZAX
# Format: in vivo
# condition.notes: Rate 63 g a.i./ha, visually observed 20th to 23rd day after application
Label condition met when Pre-emergence Herbicidal Activity TRZAX (growth controlling degree) is strictly below 30%; at or above that, label condition not met.

compound	target.of.assay	class
COc1c(Cl)cc(F)c(-c2nn(C)c(OC(F)F)c2Cl)c1NC(=O)C(C)=Cc1ccccc1	wheat (Triticum aestivum L.): TRZAX	condition met
COc1c(Cl)cc(F)c(-c2nn(C)c(OC(F)F)c2Cl)c1NC(=O)C=Cc1ccccc1C	wheat (Triticum aestivum L.): TRZAX	condition met
COCCC(=O)Nc1c(OC)c(Cl)cc(F)c1-c1nn(C)c(OC(F)F)c1Cl	wheat (Triticum aestivum L.): TRZAX	condition not met
COc1c(Cl)cc(F)c(-c2nn(C)c(OC(F)F)c2Cl)c1NC(=O)c1cccc(Cl)c1	wheat (Triticum aestivum L.): TRZAX	condition met
COc1c(Cl)cc(F)c(-c2nn(C)c(OC(F)F)c2Cl)c1NC(=O)C=Cc1ccc(F)cc1	wheat (Triticum aestivum L.): TRZAX	condition met

Q: Input COc1c(Cl)cc(F)c(-c2nn(C)c(OC(F)F)c2Cl)c1NC(=O)C(C)Oc1ccccc1 (centres unmarked) ; condition: Pre-emergence Herbicidal Activity TRZAX (growth controlling degree) strictly below 30%. Does it hold?
Result: condition met

Q: Input `COc1c(Cl)cc(F)c(-c2nn(C)c(OC(F)F)c2Cl)c1NC(=O)C(C)C` ; condition: Pre-emergence Herbicidal Activity TRZAX (growth controlling degree) strictly below 30%. Does it hold?
Result: condition not met

Q: Input `COc1c(Cl)cc(F)c(-c2nn(C)c(OC(F)F)c2Cl)c1NC(=O)c1ccccc1Cl` ; condition: Pre-emergence Herbicidal Activity TRZAX (growth controlling degree) strictly below 30%. Does it hold?
Result: condition not met

Q: Input `COc1c(Cl)cc(F)c(-c2nn(C)c(OC(F)F)c2Cl)c1NC(=O)CC(C)(C)C` ; condition: Pre-emergence Herbicidal Activity TRZAX (growth controlling degree) strictly below 30%. Does it hold?
Result: condition met

Q: Input `COc1ccc(C(=O)Nc2c(OC)c(Cl)cc(F)c2-c2nn(C)c(OC(F)F)c2Cl)cc1` ; condition: Pre-emergence Herbicidal Activity TRZAX (growth controlling degree) strictly below 30%. Does it hold?
Result: condition met

Q: Input `COc1c(Cl)cc(F)c(-c2nn(C)c(OC(F)F)c2Cl)c1NC(=O)OCCCl` ; condition: Pre-emergence Herbicidal Activity TRZAX (growth controlling degree) strictly below 30%. Does it hold?
Result: condition not met

Q: Input `COc1cccc(C(=O)Nc2c(OC)c(Cl)cc(F)c2-c2nn(C)c(OC(F)F)c2Cl)c1` ; condition: Pre-emergence Herbicidal Activity TRZAX (growth controlling degree) strictly below 30%. Does it hold?
Result: condition met

Q: Input `COc1c(Cl)cc(F)c(-c2nn(C)c(OC(F)F)c2Cl)c1NC1CCCC1` ; condition: Pre-emergence Herbicidal Activity TRZAX (growth controlling degree) strictly below 30%. Does it hold?
Result: condition met

Q: Input `COC(=O)Nc1c(OC)c(Cl)cc(F)c1-c1nn(C)c(OC(F)F)c1Cl` ; condition: Pre-emergence Herbicidal Activity TRZAX (growth controlling degree) strictly below 30%. Does it hold?
Result: condition not met

Q: Input `CNc1c(OC)c(Cl)cc(F)c1-c1nn(C)c(OC(F)F)c1Cl` ; condition: Pre-emergence Herbicidal Activity TRZAX (growth controlling degree) strictly below 30%. Does it hold?
Result: condition met

Q: Input `COc1ccc(COC(=O)Nc2c(OC)c(Cl)cc(F)c2-c2nn(C)c(OC(F)F)c2Cl)cc1` ; condition: Pre-emergence Herbicidal Activity TRZAX (growth controlling degree) strictly below 30%. Does it hold?
Result: condition met
